assay: self-splicing fitness, log relative to wild type (ln ratio); higher = more splicing; Tetrahymena group I intron in knt gene, E. coli kanamycin selection, DiMSum; sequences stand for … in CUCUCU…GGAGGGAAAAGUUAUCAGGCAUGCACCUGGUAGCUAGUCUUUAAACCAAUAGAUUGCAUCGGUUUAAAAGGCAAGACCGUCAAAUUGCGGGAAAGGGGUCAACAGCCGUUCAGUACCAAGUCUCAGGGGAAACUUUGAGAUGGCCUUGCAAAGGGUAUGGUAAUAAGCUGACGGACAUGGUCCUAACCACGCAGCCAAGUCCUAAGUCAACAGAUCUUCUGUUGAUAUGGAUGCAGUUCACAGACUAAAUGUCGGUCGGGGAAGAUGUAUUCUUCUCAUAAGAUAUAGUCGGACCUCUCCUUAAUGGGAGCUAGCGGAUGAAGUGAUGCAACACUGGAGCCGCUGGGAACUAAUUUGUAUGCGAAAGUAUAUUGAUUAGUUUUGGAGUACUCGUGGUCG; conditions: 37 °C;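 also: selection with 25 µg/mL kanamycin versus none on LB agar overnight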
// reported self-splicing fitness (ln) per item
Give only the figure.

Consider the reported self-splicing fitness (ln) for these sequences:
Item `GAAUAGCAAUAUUACGCUUC` has what recorded self-splicing fitness (ln)? -1.83

// same read-out, input: `CCCGAGCAAUAUUACGAAUA` -2.89

Continuing:
Item `AUUGAGCAAUAUUACGCAAC` has what recorded self-splicing fitness (ln)? -2.26

Proceed to `AUGAAGCAAUAUUACGUCAC` -1.09

Similarly, `UAAGAGCAAUAUUACGUUGA` ? -1.97

Quick one: `CAUGAGCAAUAUUACGGAAG` -0.61

Proceed to `UGCUAGCAAUAUUACGGCCG` 0.337

Follow-up item: `AACGAGCAAUAUUACGUGCU` -2.16

---

Listing of recorded self-splicing fitness (ln) by entry.
experiment: self-splicing fitness, log relative to wild type (ln ratio); higher = more splicing; Tetrahymena group I intron in knt gene, E. coli kanamycin selection, DiMSum; sequences stand for … in CUCUCU…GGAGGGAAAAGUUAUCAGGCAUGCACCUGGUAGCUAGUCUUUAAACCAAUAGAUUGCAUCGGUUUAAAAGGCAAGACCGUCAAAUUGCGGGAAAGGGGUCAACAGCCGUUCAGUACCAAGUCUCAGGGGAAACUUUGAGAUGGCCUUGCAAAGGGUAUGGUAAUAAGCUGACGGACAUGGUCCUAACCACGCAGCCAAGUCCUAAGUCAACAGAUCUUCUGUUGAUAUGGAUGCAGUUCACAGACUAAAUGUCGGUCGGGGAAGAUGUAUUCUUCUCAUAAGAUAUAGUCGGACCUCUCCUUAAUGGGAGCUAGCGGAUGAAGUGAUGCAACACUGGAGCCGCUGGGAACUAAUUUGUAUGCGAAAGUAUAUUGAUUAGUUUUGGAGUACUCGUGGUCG; conditions: 37 °C
Response field accepts a number only; no unit should be typed.

// solved cases for self-splicing fitness (ln) follow
Item `UGGAAGCAAUAUUACGACUG` has what recorded self-splicing fitness (ln)? -0.683

// query: `AUAUAGCAAUAUUACGUGGC` -2.67

Next entry: `GCACAGCAAUAUUACGGCCC` -0.615

Consider next the sequence `GUAGAGCAAUAUUACGGCAA` in the same way. -0.535

Ok, now `AAUCAGCAAUAUUACGCUAC` -2.22

Please give the result for `ACGAAGCAAUAUUACGCAGA` too. -1.1

Please answer likewise for `AACAAGCAAUAUUACGGUUC` -2.43

// query: `UCCCAGCAAUAUUACGGAAA` -0.716

More entries:
So what does the record say about self-splicing fitness (ln) for `UAUCAGCAAUAUUACGUGAU` ? -1.51

Can you handle `AUGUAGCAAUAUUACGCUCG` next? 0.00954

Check `GUCAAGCAAUAUUACGAGGA` too. -4.45

---

Entries and their self-splicing fitness (ln) values follow.
experiment: self-splicing fitness, log relative to wild type (ln ratio); higher = more splicing; Tetrahymena group I intron in knt gene, E. coli kanamycin selection, DiMSum; sequences stand for … in CUCUCU…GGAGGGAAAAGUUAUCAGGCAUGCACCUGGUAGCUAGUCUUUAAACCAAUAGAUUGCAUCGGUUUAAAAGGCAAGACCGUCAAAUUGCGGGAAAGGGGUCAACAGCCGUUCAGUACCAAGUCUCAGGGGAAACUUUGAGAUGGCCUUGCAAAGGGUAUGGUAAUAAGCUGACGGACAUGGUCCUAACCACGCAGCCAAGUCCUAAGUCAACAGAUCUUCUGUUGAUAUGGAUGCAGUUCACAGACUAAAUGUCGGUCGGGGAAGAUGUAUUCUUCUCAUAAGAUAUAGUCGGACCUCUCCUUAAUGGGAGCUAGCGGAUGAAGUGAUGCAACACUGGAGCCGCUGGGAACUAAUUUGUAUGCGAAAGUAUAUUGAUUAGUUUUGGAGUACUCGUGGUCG; settings: 37 °C
Give your answer as a number; write no unit.

Solved entries:
I'd like to know its self-splicing fitness (ln). The sequence in question is `UCGCAGCAAUAUUACGAGAU` -1.86

And for `CAUGAGCAAUAUUACGAGUU` ? -2.6

What would you report for `CGGAAGCAAUAUUACGCUCA` ? 0.105

Param item: `GUUGAGCAAUAUUACGCCGC` -2.15

Now consider `CAAUAGCAAUAUUACGAGCA` . -0.415

Others:
Could you share which self-splicing fitness (ln) value was measured for `ACAAAGCAAUAUUACGCUUA` ? -1.71

Next up: `CACGAGCAAUAUUACGACUA` -1.85

Same for `AGGUAGCAAUAUUACGCAUU` -0.988

Similarly, `GCCCAGCAAUAUUACGCGCG` ? -0.815

Queued: `AUGCAGCAAUAUUACGUGCG` -0.294

Cool, now `CCCAAGCAAUAUUACGGCCG` -2.43

Repeat with `AAAUAGCAAUAUUACGGAAA` -1.53

Could you do the same for `CCCUAGCAAUAUUACGCCAG` , please? -3.21

Can you handle `UGGGAGCAAUAUUACGGGUU` next? -2.02

---

assay: self-splicing fitness, log relative to wild type (ln ratio); higher = more splicing; Tetrahymena group I intron in knt gene, E. coli kanamycin selection, DiMSum; sequences stand for … in CUCUCU…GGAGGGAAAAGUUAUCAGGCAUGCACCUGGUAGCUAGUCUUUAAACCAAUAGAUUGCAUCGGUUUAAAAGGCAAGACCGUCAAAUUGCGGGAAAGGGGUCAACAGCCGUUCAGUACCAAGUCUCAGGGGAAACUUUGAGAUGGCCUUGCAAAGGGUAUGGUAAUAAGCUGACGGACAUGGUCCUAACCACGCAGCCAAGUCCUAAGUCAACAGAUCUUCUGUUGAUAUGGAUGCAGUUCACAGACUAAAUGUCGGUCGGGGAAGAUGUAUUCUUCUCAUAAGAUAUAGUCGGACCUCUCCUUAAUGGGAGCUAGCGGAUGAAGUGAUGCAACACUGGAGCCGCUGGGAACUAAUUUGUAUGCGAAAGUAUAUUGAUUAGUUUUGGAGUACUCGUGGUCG; conditions: 30 °C
self-splicing fitness (ln) below -3 gives n; self-splicing fitness (ln) at or above it gives y.

Worked set:
Determine whether this sequence has self-splicing fitness (ln) no lower than -3: `AGACAGCAAUAUUACGGACG` y

Next up: `ACCAAGCAAUAUUACGCAUC` n

Subsequent entry: `UCAGAGCAAUAUUACGAGCG` n

Try `UGCUAGCAAUAUUACGAGCG` next. y

***
Confirm if self-splicing fitness (ln) reported for the sequence `CGACAGCAAUAUUACGAGGC` is -3 or above. y

Now the sequence `AAGCAGCAAUAUUACGUCGU` y

Follow-up entry: `CACAAGCAAUAUUACGGCUA` y

Please give the result for `ACACAGCAAUAUUACGCAUU` too. y

And for `AUGAAGCAAUAUUACGUCGA` ? y

Now the sequence `GUACAGCAAUAUUACGGGUC` n

Then this sequence: `UCCUAGCAAUAUUACGUCUC` n

Now consider `UCGAAGCAAUAUUACGCGUU` and answer again. n

---

assay: self-splicing fitness, log relative to wild type (ln ratio); higher = more splicing; Tetrahymena group I intron in knt gene, E. coli kanamycin selection, DiMSum; sequences stand for … in CUCUCU…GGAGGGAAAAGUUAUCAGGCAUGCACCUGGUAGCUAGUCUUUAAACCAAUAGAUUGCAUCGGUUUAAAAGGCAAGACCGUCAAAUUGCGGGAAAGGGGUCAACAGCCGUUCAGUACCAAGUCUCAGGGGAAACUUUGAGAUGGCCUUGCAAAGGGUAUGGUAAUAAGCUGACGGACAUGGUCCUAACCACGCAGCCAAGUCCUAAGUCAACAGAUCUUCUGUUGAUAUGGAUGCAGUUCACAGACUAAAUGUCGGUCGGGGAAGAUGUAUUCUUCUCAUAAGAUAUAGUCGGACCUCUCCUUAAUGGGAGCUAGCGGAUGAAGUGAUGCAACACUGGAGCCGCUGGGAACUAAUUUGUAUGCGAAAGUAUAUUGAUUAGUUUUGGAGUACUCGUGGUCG; settings: 30 °C
Give y when the value for self-splicing fitness (ln) is at least -2. Give n when it is less.

Take a look at these entries with their results.
Given the entry `ACUGAGCAAUAUUACGGCAC` , answer whether its self-splicing fitness (ln) meets or surpasses -2. n

Moving on to the next sequence: `UGUCAGCAAUAUUACGCUUG` y

How about `UUAGAGCAAUAUUACGUGGA` ? n

One more sequence: `UGGCAGCAAUAUUACGUGAC` n

Lookup `AUCAAGCAAUAUUACGAAAU` n

***
Exam item: decide whether the reported self-splicing fitness (ln) for `UUCCAGCAAUAUUACGUGUC` is at least -2. n

Here is the next sequence: `GCAGAGCAAUAUUACGCUCA` y

And for `CCCUAGCAAUAUUACGUCGC` ? n

Could you do the same for `AGGGAGCAAUAUUACGUCUA` , please? n

Now this one: `CGCCAGCAAUAUUACGACAC` n
